- SYSTEM NAME: Thromboxane-A synthase (Rattus norvegicus) (UniProt P49430)
- Sequence (P49430 whole entry): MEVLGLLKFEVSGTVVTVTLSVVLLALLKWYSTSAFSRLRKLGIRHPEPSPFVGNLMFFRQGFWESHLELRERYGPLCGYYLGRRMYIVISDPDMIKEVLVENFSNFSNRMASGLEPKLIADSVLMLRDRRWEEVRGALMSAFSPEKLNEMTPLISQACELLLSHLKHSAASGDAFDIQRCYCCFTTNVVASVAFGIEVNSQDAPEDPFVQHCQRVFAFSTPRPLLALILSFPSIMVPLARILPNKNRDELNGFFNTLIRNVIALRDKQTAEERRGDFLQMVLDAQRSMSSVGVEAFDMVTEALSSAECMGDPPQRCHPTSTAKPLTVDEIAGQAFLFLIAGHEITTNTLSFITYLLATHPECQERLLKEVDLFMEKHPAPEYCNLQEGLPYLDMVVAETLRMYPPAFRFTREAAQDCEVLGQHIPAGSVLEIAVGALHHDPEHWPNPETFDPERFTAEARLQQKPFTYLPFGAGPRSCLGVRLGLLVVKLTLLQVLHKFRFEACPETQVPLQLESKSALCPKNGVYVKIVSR
- ASSAY OVERVIEW: Inhibitory activity for thromboxane synthetase determined by TXB2 levels in platelets from spontaneously hypertensive rats.
- Set-up: concentration or dose not given beside the values
- TEST PARAMETERS: concentration not given here
PROPERTY NAME: inhibition (%)
Reply with just the number (in %).

Use these answered entries as a reference point.
> print(dat)
                          molecule  property.name  unit.descriptor  assay.value
1  CCCCOc1ccc(C(=O)NCCCn2ccnc2)cc1     inhibition                %           75
2  Cc1cn(CCCNC(=O)c2cccc(Cl)c2)cn1     inhibition                %           84
3  Cc1cn(CCCNC(=O)c2ccc(Br)cc2)cn1     inhibition                %           80

The molecule O=C(Cc1ccc(F)cc1)NCCCn1ccnc1 , tested on Thromboxane-A synthase (Rattus norvegicus) (UniProt P49430), showed inhibition of 33

The molecule O=C(NCCCn1ccnc1)c1ccc(C(=O)c2ccccc2)cc1 , tested on Thromboxane-A synthase (Rattus norvegicus) (UniProt P49430), showed inhibition of 100

The molecule O=C(NC/C=C/Cn1ccnc1)c1ccc(Cl)cc1 (stereo in doubt; 51) , tested on Thromboxane-A synthase (Rattus norvegicus) (UniProt P49430), showed inhibition of 100

The molecule CNc1ccccc1C(=O)NCCCn1ccnc1 , tested on Thromboxane-A synthase (Rattus norvegicus) (UniProt P49430), showed inhibition of 57

The molecule Cc1cn(CCCNC(=O)c2ccc(Cl)c(Cl)c2)cn1 , tested on Thromboxane-A synthase (Rattus norvegicus) (UniProt P49430), showed inhibition of 90
